Reference source for all entries: patent US20230365662A1

target: HRgpA-6H (Porphyromonas gingivalis) (UniProt P28784); assay: ELISA, FASEBA Fab on coated HRgpA-6H
Property: Ratio OD(Variant)/OD(WT); scope: individual binders
Write no unit; give the number alone.

[
  {
    "binder": "KB001 mouse Fab VL S30L (Fab, V domains shown) VH: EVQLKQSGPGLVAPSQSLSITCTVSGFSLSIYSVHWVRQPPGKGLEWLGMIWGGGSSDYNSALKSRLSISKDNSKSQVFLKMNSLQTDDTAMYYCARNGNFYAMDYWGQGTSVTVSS VL: QIVLTQSPAIMSASLGERVTMTCTASSSVLSSFLHWYQQKPGSSPQLWIYSTSNLASGVPARFSGSGSGTSYSLTISSMEAEDAATYYCHQYHHSPYIYTFGGGTKLEIK",
    "Ratio OD(Variant)/OD(WT)": 0.943
  }
]

# query: Ratio OD(Variant)/OD(WT) of entry KB001 mouse Fab VL S53K (Fab, V domains shown) VH: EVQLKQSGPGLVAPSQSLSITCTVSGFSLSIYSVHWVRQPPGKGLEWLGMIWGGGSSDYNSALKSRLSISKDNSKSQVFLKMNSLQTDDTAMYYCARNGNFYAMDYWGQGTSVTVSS VL: QIVLTQSPAIMSASLGERVTMTCTASSSVSSSFLHWYQQKPGSSPQLWIYSTKNLASGVPARFSGSGSGTSYSLTISSMEAEDAATYYCHQYHHSPYIYTFGGGTKLEIK
1.07

Can you look up the measured Ratio OD(Variant)/OD(WT) of KB001 mouse Fab VL T100Y (Fab, V domains shown) VH: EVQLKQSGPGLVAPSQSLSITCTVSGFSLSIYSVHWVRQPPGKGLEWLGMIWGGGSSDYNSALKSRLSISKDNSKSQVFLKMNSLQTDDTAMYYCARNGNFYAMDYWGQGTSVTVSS VL: QIVLTQSPAIMSASLGERVTMTCTASSSVSSSFLHWYQQKPGSSPQLWIYSTSNLASGVPARFSGSGSGTSYSLTISSMEAEDAATYYCHQYHHSPYIYYFGGGTKLEIK for me?
1.04
